- TARGET_UNDER_TEST: VEGFR-2 (human, UniProt P35968 20-1356)
- Sequence (P35968 20-1356): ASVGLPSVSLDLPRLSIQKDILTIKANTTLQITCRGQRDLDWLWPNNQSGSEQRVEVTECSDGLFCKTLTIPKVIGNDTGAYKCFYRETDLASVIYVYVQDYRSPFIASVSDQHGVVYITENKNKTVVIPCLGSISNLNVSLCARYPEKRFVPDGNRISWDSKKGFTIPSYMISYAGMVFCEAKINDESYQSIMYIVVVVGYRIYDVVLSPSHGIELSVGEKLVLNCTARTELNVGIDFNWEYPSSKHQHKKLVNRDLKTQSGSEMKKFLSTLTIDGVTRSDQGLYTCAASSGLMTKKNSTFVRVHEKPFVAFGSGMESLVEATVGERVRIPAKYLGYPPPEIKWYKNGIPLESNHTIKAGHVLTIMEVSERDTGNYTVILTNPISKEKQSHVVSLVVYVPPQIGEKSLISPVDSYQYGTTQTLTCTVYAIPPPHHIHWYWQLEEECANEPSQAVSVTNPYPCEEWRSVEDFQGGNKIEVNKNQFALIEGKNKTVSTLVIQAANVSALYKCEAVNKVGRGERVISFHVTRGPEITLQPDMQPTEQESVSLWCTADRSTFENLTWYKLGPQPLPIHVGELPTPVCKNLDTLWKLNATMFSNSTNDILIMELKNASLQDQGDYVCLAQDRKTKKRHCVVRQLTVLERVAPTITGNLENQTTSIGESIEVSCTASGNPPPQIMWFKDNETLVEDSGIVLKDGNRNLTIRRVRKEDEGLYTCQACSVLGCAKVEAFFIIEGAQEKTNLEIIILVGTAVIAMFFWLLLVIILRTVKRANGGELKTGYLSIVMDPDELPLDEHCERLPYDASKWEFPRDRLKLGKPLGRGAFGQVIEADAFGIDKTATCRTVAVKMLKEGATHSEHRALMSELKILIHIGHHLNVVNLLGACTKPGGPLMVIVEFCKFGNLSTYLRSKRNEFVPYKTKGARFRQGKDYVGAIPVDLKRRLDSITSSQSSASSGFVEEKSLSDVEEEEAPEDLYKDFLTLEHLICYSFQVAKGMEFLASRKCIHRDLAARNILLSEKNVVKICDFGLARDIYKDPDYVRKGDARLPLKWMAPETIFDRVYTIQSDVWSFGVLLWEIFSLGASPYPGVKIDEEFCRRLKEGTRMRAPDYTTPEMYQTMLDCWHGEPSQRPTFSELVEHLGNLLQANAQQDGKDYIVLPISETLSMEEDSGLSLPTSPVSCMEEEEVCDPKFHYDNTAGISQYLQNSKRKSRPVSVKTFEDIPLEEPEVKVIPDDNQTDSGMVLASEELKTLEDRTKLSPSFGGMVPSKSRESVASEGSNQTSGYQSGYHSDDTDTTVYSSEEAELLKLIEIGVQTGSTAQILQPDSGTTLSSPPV
- EXPERIMENT_SUMMARY: cell-based or functional assay
Bridges are numbered along the chain shown (N, C = ends). [ ]: non-standard residue; d: D form. hTyr = N[C@@H](CCc1ccc(O)cc1)C(=O)O; Tle = CC(C)(C)[C@H](N)C(=O)O; Atb = not defined here
REPORTED_PROPERTY: proliferation (HUVEC, CellTiter-Glo)

Answered examples (2):
{CH2CO}-WWVDVKDDLYFVDCG-NH2 (thioether N-14; also: homodimer: Lys6 joined to Lys6 of second copy by cPEG17c (Linker Structure No. 4)) [Peptide complex Dimer Structure No. 42]    ≥ 50 % activity at 1.25 nM
{CH2CO}-WW[Tle]DVKDD[Atb]Y[F4G][hTyr]DCG-NH2 (thioether N-14; reading uncertain; also: dimer: Lys6 joined to Lys6 of second copy by OCOPEG17OCO (Linker Structure No. 6)) [Peptide complex Dimer Structure No. 53]    ≥ 50 % activity at 5 nM

q: Bench note: what proliferation (HUVEC, CellTiter-Glo) did {CH2CO}-WW[Tle]DVKDD[Atb]YF[hTyr]DCG-NH2 (thioether N-14; reading uncertain; also: homodimer: Lys6 joined to Lys6 of second copy by OCOPEG17OCO (Linker Structure No. 6)) [Peptide complex Dimer Structure No. 52] show?
a: ≥ 50 % activity at 5 nM

q: Bench note: what proliferation (HUVEC, CellTiter-Glo) did {CH2CO}-WW[Tle]DVKDDLY[F4G][hTyr]DCG-NH2 (thioether N-14; also: homodimer: Lys6 joined to Lys6 of second copy by cPEG17c (Linker Structure No. 4)) [Peptide complex Dimer Structure No. 45] show?
a: ≥ 50 % activity at 5 nM

All figures here come from patent EP4748847A1.
